Molecular target: hTRPC5 (Homo sapiens, UniProt Q9UL62)
Construct: expressed in transfected cells; host or cells: HEK293 TREx cells with inducible TRPC5 expression
Sequence (Q9UL62 1-973): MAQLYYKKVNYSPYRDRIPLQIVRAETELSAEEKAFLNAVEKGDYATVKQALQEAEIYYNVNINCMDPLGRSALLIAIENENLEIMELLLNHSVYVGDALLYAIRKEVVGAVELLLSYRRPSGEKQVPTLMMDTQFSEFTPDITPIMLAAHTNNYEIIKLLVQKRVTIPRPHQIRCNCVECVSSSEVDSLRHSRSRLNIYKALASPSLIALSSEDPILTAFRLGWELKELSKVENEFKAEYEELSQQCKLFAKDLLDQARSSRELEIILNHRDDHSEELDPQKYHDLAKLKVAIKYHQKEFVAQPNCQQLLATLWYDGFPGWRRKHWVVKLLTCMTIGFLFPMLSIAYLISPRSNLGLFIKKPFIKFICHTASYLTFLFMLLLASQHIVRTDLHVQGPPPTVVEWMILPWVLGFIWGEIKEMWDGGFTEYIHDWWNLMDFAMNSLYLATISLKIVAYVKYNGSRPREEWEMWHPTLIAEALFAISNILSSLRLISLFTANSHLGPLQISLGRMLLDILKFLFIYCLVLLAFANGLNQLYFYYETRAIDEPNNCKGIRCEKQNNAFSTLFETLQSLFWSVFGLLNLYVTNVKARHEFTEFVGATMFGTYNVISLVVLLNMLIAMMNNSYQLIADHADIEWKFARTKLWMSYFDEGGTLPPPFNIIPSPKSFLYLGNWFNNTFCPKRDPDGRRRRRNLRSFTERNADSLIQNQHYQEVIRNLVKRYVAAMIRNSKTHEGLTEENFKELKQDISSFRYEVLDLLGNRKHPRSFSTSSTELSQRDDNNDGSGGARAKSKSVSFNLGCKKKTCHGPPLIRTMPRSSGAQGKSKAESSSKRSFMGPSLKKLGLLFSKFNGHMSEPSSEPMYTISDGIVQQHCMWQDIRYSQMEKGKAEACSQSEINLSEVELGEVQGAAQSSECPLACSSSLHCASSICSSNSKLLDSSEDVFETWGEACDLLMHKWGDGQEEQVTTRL
Experiment: Whole-cell patch clamp, block of LaCl3-activated TRPC5 inward current
Type: cell-based
Conditions: TRPC5-expressing HEK293 TREx cells, 80 μM LaCl3, inward current, IC50 estimated from 5 μM and 500 nM, read-out: hTRPC5 Patch La3+ Inwd (nM) (All Batches)
propertyLabel: IC50

See these solved cases before continuing.
What value of measured IC50 is listed for Cn1c(=O)c2c(nc(Oc3cccc(Cl)c3)n2Cc2cccc(Br)c2)n(C)c1=O ?
100 to 500 nM

Which IC50 is listed for CCC(CO)NC(=O)C(C)Cc1nc2c(c(=O)n(C)c(=O)n2C)n1Cc1cccc(Br)c1 (stereo not drawn) ?
2000 to 10000 nM

Need IC50 of CCc1coc(CSc2nc3c(c(=O)n(C)c(=O)n3C)n2Cc2ccc(Br)cc2)n1 , thanks.
< 100 nM

More entries:
Consider the compound CN(Cc1ccccc1)c1nc2c(c(=O)n(C)c(=O)n2C)n1Cc1ccc(Cl)c(Cl)c1 and give its measured IC50.
2000 to 10000 nM

Which value of IC50 has been reported for Cn1c(=O)c2c(nc(Sc3cccc(C(F)(F)F)c3)n2Cc2ccc(Cl)cc2)n(C)c1=O in the records?
100 to 500 nM

Bench note: what IC50 did CCC(=O)CSc1nc2c(c(=O)n(C)c(=O)n2C)n1Cc1cccc(Br)c1 show?
500 to 1000 nM

Find the recorded IC50 belonging to CCc1coc(CSc2nc3c(c(=O)n(C)c(=O)n3C)n2Cc2ccc(F)cc2)n1 and report it.
100 to 500 nM

Which value of IC50 has been reported for CC(Cc1nc2c(c(=O)n(C)c(=O)n2C)n1Cc1cccc(Br)c1)C(=O)O (stereo not drawn) in the records?
2000 to 10000 nM

---

Molecular target: hTRPC5 (Homo sapiens)
Construct: expressed in transfected cells; host or cells: HEK293 TREx cells with inducible TRPC5 expression
Test: Whole-cell patch clamp, block of LaCl3-activated TRPC5 inward current
Assay type: cell-based
Conditions: TRPC5-expressing HEK293 TREx cells, 80 μM LaCl3, inward current, IC50 estimated from 5 μM and 500 nM, read-out: hTRPC5 Patch La3+ Inwd (nM) (All Batches)
Here, each record is paired with measured IC50 data.

Worked cases, answers included:
For CCc1coc(CSc2nc3c(c(=O)n(C)c(=O)n3C)n2Cc2ccc(C)cc2)n1 , what is its reported IC50?
100 to 500 nM

Requested read-out: IC50. Entry: Cn1c(=O)c2c(nc(Oc3cccc(C(F)(F)F)c3)n2Cc2ccc(Cl)nc2)n(C)c1=O
2000 to 10000 nM

Tell me the measured IC50 of CC1CCN(Cc2nc3c(c(=O)n(C)c(=O)n3C)n2Cc2cccc(Br)c2)CC1 , please.
2000 to 10000 nM

// next entry
Which measured IC50 value corresponds to CCOC(=O)CCc1nc2c(c(=O)n(C)c(=O)n2C)n1Cc1cccc(Br)c1 ?
2000 to 10000 nM

---

Entries and their IC50 values follow.
Target: hTRPC5 (Homo sapiens, UniProt Q9UL62)
Construct: expressed in transfected cells; host or cells: HEK293 TREx cells with inducible TRPC5 expression
Experiment: Whole-cell patch clamp, block of LaCl3-activated TRPC5 inward current
Assay type: cell-based
Settings: TRPC5-expressing HEK293 TREx cells, 80 μM LaCl3, inward current, IC50 estimated from 5 μM and 500 nM, read-out: hTRPC5 Patch La3+ Inwd (nM) (All Batches)
Counter-ions that a name gives are not always drawn.

Completed entries (count: 5):
Write down the reported IC50 of Cn1c(=O)c2c(nc(SCCCC#N)n2Cc2cccc(Cl)c2)n(C)c1=O [Compound 62] , test system: hTRPC5 (Homo sapiens, UniProt Q9UL62).
1000 to 2000 nM

What is its IC50 for hTRPC5 (Homo sapiens, UniProt Q9UL62)? Entry: Cn1c(=O)c2c(nc(Oc3cccc(OC(F)(F)F)c3)n2Cc2cc(Cl)cc(Cl)c2)n(C)c1=O [Compound 204]
< 100 nM

Form entry - test system: hTRPC5 (Homo sapiens, UniProt Q9UL62); read-out: IC50; compound: CCOC(=O)c1cccc(Cc2nc3c(c(=O)n(C)c(=O)n3C)n2Cc2cccc(Br)c2)c1 [Compound 102]
1000 to 2000 nM

Fill in the recorded IC50 for this compound, with hTRPC5 (Homo sapiens, UniProt Q9UL62) as test system: CCOCCSc1nc2c(c(=O)n(C)c(=O)n2C)n1Cc1cccc(Br)c1 [Compound 6]
100 to 500 nM

Record CNCc1cccc(Oc2nc3c(c(=O)n(C)c(=O)n3C)n2Cc2cccc(Cl)c2)c1 [Compound 152, hydrochloride] : what is its IC50 with hTRPC5 (Homo sapiens, UniProt Q9UL62)?
2000 to 10000 nM

Next:
hTRPC5 (Homo sapiens, UniProt Q9UL62) / IC50 / COc1cccc(Cn2c(Oc3ccc(-c4ccccn4)cc3)nc3c2c(=O)n(C)c(=O)n3C)c1 [Compound 189] : value?
2000 to 10000 nM

Please state recorded IC50 (tested on hTRPC5 (Homo sapiens, UniProt Q9UL62)) of CCCOCCc1nc2c(c(=O)n(C)c(=O)n2C)n1Cc1cccc(OC(F)(F)F)c1 [Compound 88]
500 to 1000 nM

Find IC50 (hTRPC5 (Homo sapiens, UniProt Q9UL62)) for the entry COCCOCCSc1nc2c(c(=O)n(C)c(=O)n2C)n1Cc1cccc(Br)c1 [Compound 17]
100 to 500 nM

---

Target: hTRPC5 (Homo sapiens, UniProt Q9UL62)
Construct: expressed in transfected cells; host or cells: HEK293 TREx cells with inducible TRPC5 expression
Sequence (Q9UL62 1-973): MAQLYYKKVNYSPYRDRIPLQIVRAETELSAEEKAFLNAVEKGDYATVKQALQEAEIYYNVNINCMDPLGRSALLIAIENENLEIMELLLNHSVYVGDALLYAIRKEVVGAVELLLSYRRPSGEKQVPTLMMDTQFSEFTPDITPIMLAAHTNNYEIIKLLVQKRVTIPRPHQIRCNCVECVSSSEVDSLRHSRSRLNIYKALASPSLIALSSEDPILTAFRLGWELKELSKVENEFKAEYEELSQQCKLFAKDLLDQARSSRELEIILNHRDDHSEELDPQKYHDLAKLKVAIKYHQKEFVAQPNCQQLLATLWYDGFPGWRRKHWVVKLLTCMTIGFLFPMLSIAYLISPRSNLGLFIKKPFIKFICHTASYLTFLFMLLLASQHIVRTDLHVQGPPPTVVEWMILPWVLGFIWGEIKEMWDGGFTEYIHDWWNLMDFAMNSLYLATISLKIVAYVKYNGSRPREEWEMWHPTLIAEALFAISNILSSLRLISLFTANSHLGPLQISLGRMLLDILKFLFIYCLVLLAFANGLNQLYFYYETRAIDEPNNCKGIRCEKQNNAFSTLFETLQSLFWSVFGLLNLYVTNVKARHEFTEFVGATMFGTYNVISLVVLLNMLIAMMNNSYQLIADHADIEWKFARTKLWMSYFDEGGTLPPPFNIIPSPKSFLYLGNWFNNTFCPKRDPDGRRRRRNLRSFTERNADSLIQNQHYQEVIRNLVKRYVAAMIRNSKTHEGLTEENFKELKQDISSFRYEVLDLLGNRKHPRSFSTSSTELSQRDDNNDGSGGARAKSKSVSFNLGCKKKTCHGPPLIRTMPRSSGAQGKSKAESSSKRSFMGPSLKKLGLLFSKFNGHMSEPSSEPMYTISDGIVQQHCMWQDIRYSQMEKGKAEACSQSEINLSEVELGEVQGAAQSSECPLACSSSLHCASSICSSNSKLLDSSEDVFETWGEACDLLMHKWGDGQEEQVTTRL
Test: Whole-cell patch clamp, block of LaCl3-activated TRPC5 inward current
Format: cell-based
Settings: TRPC5-expressing HEK293 TREx cells, 80 μM LaCl3, inward current, IC50 estimated from 5 μM and 500 nM, read-out: hTRPC5 Patch La3+ Inwd (nM) (All Batches)
// reported IC50 per item

Some solved entries appear below for comparison.
// query IC50 value for entry CCCCOCc1nc2c(c(=O)n(C)c(=O)n2C)n1Cc1cccc(Br)c1 [Compound 55]
500 to 1000 nM

Form field: reported IC50 of Cc1c(Oc2nc3c(c(=O)n(C)c(=O)n3C)n2Cc2ccc(Cl)cc2)cccc1C(F)(F)F [Compound 207]
2000 to 10000 nM

Name the recorded IC50 for CN(C)Cc1ccc(Cn2c(Oc3cccc(OC(F)(F)F)c3)nc3c2c(=O)n(C)c(=O)n3C)cc1 [Compound 186] .
2000 to 10000 nM

What value of IC50 has been reported for the following compound? COc1cccc(Cn2c(Oc3ccc(Br)cc3)nc3c2c(=O)n(C)c(=O)n3C)c1 [Compound 194]
1000 to 2000 nM

Recorded IC50 for CN1CCN(C(=O)Cc2nc3c(c(=O)n(C)c(=O)n3C)n2Cc2cccc(Br)c2)CC1 [Compound 29] , please?
2000 to 10000 nM

Request the reported IC50 associated with Cc1nc2c(c(=O)n(C)c(=O)n2C)n1Cc1cccc(Br)c1 [Compound 24]
2000 to 10000 nM

Let's switch to this compound now.
Would you mind telling me what IC50 value was observed for CCCOCCc1nc2c(c(=O)n(C)c(=O)n2C)n1Cc1cccc(CO)c1 [Compound 141] ?
2000 to 10000 nM
